organism: Rattus norvegicus; assay: Inhibition of albino rat intestine alpha-glucosidase using p-nitrophenyl-alpha-D-glucopyranoside as substrate at 100 uM
// reported inhibition for each item listed
# output: bare number, implied unit %

compound_string=Nc1nc2c(c(-c3ccc(Br)cc3)n1)CCCC/C2=C\c1ccc(Br)cc1 readout_kind=inhibition uom=% measured_number=-5.86
compound_string=Nc1nc2c(c(-c3ccccc3)n1)CCCC/C2=C\c1ccccc1 readout_kind=inhibition uom=% measured_number=-0.07

Reported inhibition for `Nc1nc2c(c(-c3cccc4ccccc34)n1)CCC/C2=C\c1cccc2ccccc12` : what is it?
13.7

Reported inhibition for `Nc1nc2c(c(-c3ccc4ccccc4c3)n1)CCC/C2=C\c1ccc2ccccc2c1` : what is it?
-6

Reported inhibition for `Nc1nc(Cc2ccco2)c2c(n1)/C(=C/Cc1ccco1)CCCC2` : what is it?
-4.87

Reported inhibition for `Nc1nc2c(c(-c3ccc(Cl)cc3)n1)CCCC/C2=C\c1ccc(Cl)cc1` : what is it?
11.4

Reported inhibition for `COc1ccc(/C=C2\CCCCc3c2nc(N)nc3-c2ccc(OC)c(OC)c2)cc1OC` : what is it?
-6.4

###

// reported inhibition for each item listed
Molecular target: Glycogen phosphorylase, liver form (Rattus norvegicus)
Sequence (whole entry): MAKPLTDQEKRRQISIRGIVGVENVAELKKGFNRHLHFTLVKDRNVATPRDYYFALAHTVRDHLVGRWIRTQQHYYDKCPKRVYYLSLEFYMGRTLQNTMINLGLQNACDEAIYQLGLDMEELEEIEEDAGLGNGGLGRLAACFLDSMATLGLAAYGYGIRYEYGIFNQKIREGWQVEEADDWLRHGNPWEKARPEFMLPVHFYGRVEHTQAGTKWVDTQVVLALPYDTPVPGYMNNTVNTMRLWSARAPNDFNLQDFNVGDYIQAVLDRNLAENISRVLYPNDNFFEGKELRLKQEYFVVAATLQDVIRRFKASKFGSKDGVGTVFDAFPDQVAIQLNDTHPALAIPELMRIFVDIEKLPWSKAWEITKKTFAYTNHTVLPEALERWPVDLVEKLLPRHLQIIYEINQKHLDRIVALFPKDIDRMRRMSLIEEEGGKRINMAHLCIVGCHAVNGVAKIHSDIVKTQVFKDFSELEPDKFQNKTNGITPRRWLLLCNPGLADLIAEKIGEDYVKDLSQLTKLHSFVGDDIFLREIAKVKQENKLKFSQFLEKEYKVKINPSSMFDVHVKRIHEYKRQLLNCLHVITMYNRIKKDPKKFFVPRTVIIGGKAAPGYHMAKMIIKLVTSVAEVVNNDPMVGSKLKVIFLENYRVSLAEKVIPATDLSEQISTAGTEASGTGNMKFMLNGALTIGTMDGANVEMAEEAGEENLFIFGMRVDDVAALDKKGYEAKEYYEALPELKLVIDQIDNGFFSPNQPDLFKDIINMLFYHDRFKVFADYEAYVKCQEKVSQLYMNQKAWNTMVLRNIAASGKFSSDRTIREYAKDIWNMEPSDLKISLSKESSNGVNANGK
Test: Inhibition of Wistar rat liver glycogen phosphorylase at 100 uM after 30 mins

compound_string=Nc1nc2c(c(-c3ccccc3)n1)CCC/C2=C\c1ccccc1 target_under_test="Glycogen phosphorylase, liver form (Rattus norvegicus)" readout_kind=inhibition result=-6.1%
compound_string=Nc1nc(Cc2ccco2)c2c(n1)/C(=C/Cc1ccco1)CCCC2 target_under_test="Glycogen phosphorylase, liver form (Rattus norvegicus)" readout_kind=inhibition result=34.3%
compound_string=Nc1nc2c(c(-c3ccc(OCc4ccccc4)cc3)n1)CCC/C2=C\c1ccc(OCc2ccccc2)cc1 target_under_test="Glycogen phosphorylase, liver form (Rattus norvegicus)" readout_kind=inhibition result=-0.87%
compound_string=COc1ccc(/C=C2\CCCc3c2nc(N)nc3-c2ccc(OC)cc2)cc1 target_under_test="Glycogen phosphorylase, liver form (Rattus norvegicus)" readout_kind=inhibition result=-10%
compound_string=Nc1nc2c(c(-c3ccc4ccccc4c3)n1)CCC/C2=C\c1ccc2ccccc2c1 target_under_test="Glycogen phosphorylase, liver form (Rattus norvegicus)" readout_kind=inhibition result=-5%

Query compound follows.
Reported inhibition for `Nc1nc2c(c(-c3cccc4ccccc34)n1)CCC/C2=C\c1cccc2ccccc12` : what is it?
11.3%

Numbers sourced from ChEMBL document CHEMBL1806375.
